The values you see were collected from patent EP1191024A1.

- targetSystem: cdMMP-12 (Homo sapiens)
- Construct: The catalytic domain of MMP-12 was expressed in E. coli; made in house; host or cells: E. coli
- Sequence (P39900 106-263 limits assumed): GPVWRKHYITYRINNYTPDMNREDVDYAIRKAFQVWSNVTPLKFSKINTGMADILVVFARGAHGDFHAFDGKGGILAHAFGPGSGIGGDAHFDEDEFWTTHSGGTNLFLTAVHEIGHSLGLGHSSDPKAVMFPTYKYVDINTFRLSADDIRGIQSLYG
- assayRemarks: MMP microfluorometric profiling assay (fluorogenic Mca-peptide substrate)
- Assay type: biochemical
Where a name gives a salt, the structure may show the parent alone.
assayReadout: IC50 (µM)

In [3]: df
Out[3]:
                                   molecule  assayreadout  comparisonsymbol  quantitativeresult
0  O=C(CC1NC(=O)NC1=O)NC1=NN=C(c2ccc(Br)cc2)CS1 (stereo not shown)          IC50                 =               0.297
1  COc1ccc(S(=O)(=O)NCC(=O)NC2=NN=C(c3c(F)c(F)c(F)c(F)c3F)CS2)cc1          IC50                 =                0.92
2  C[C@H](NS(=O)(=O)c1ccccc1)C(=O)NC1=NN=C(c2ccc(C(F)(F)F)cc2)CS1          IC50                 =               0.367
3  C=CCNC1=NN=C(c2ccc(Cl)cc2)CS1 [Example 31, hydrobromide]          IC50                 >                  15

* * *

- targetSystem: cdMMP-2 (Homo sapiens, UniProt P08253)
- Sequence (P08253 110-446): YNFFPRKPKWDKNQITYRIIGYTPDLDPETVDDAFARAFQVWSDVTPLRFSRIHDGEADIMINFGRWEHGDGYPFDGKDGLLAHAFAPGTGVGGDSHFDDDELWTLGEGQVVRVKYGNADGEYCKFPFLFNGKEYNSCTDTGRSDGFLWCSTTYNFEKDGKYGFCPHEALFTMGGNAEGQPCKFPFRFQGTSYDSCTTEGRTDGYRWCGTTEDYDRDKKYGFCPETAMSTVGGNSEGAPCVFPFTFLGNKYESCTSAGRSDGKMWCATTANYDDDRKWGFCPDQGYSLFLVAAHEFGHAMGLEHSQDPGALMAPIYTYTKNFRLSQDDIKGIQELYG
- assayRemarks: MMP microfluorometric profiling assay (fluorogenic Mca-peptide substrate)
- Assay type: biochemical
- statedConditions: read-out: cdMMP-2 IC50
assayReadout: log10 IC50 (log10 of the value in nM)

In [3]: df
Out[3]:
                                    compound  quantitativeresult
 0  O=C(CC1NC(=O)NC1=O)NC1=NN=C(c2ccc(N3CCCC3)cc2)CS1 (centres unmarked)                2.95
 1  COc1ccc(S(=O)(=O)N[C@@H](C)C(=O)NC2=NN=C(c3ccc(C)cc3)CS2)cc1                2.83
 2  O=C1C[C@@H](C(=O)NC2=NN=C(c3ccc(Cl)cc3)CS2)NC(=O)N1                2.84
 3  C[C@H](NS(=O)(=O)c1ccccc1)C(=O)NC1=NN=C(c2ccc(C#N)cc2)CS1                2.59
 4  CC(C)(C)c1ccc(S(=O)(=O)NCC(=O)NC2=NN=C(c3ccc(Cl)cc3Cl)CS2)cc1                3.39
 5  C[C@H](NS(=O)(=O)c1ccccc1)C(=O)NC1=NN=C(c2ccc(F)cc2)CS1                2.87
 6  C[C@H](NS(=O)(=O)c1ccccc1)C(=O)NC1=NN=C(c2ccc([N+](=O)[O-])cc2)CS1                2.69
 7  C[C@H](NS(=O)(=O)c1ccccc1)C(=O)NC1=NN=C(c2ccc(Cl)s2)CS1                3.49
 8  CC(C)[C@H](NS(=O)(=O)c1ccccc1)C(=O)NC1=NN=C(c2ccc(Cl)cc2)CS1                3.16
 9  O=C(CC1NC(=O)NC1=O)NC1=NN=C(c2ccc(Br)cc2)CS1 (centres unmarked)                2.94
10  COc1ccc(S(=O)(=O)NCC(=O)NC2=NN=C(c3c(F)c(F)c(F)c(F)c3F)CS2)cc1                3.59
11  CC(C)[C@@H](NS(=O)(=O)c1ccccc1)C(=O)NC1=NN=C(c2ccc(Cl)cc2)CS1                3.15
12  C[C@@H](NS(=O)(=O)c1ccccc1)C(=O)NC1=NN=C(c2ccc(C#N)cc2)CS1                2.55
13  C[C@H](NS(=O)(=O)c1cccnc1)C(=O)NC1=NN=C(c2ccc(Cl)cc2)CS1                2.55
14  C[C@@H](NS(=O)(=O)c1ccccc1)C(=O)NC1=NN=C(c2ccc(F)cc2)CS1                2.76
15  C[C@H](NS(=O)(=O)c1ccccc1)C(=O)NC1=NN=C(c2ccc(Br)cc2)CS1                2.66
16  COc1ccc(S(=O)(=O)NCC(=O)NC2=NN=C(c3ccc(Cl)cc3Cl)CS2)cc1                3.18

* * *

- targetSystem: UniProt P45452
- assayRemarks: MMP microfluorometric profiling assay (fluorogenic Mca-peptide substrate)
- Assay type: biochemical
- statedConditions: read-out: cdMMP-13 IC50
- Protocol: The tested MMP enzymes were prepared more specifically in the laboratories of the applicants, with the exception of MMP-1. MMP-1 from human rheumatoid synovial fibroblasts was purchased from Calbiochem-Novabiochem Corporation, LaJolla. […] The enzymatic activity was measured using a modified version of a resonance energy transfer fluorogenic assay as described^[26]. […] Cleavage results in the loss of energy transfer and a large increase in fluorescence of the MCA group. […]
assayReadout: IC50 (nM)

>>> df
                             moleculesmiles  unitabbrev  quantitativeresult
0  COc1ccc(S(=O)(=O)N[C@@H](C)C(=O)NC2=NN=C(c3ccc(C)cc3)CS2)cc1          nM                1110
1  COc1ccc(C2=NN=C(NC(=O)[C@H](C)NS(=O)(=O)c3ccccc3)SC2)cc1          nM                2310
2  C[C@H](NS(=O)(=O)c1ccccc1)C(=O)NC1=NN=C(c2ccc(Cl)s2)CS1          nM                 853
3  C[C@H](NS(=O)(=O)c1ccccc1)C(=O)NC1=NN=C(c2ccc(C#N)cc2)CS1          nM                 387
4  CC(C)(C)c1ccc(S(=O)(=O)NCC(=O)NC2=NN=C(c3ccc(Cl)cc3Cl)CS2)cc1          nM                1410
5  C[C@@H](NS(=O)(=O)c1ccccc1)C(=O)NC1=NN=C(c2ccc(C#N)cc2)CS1          nM                 368
6  C[C@@H](NS(=O)(=O)c1ccccc1)C(=O)NC1=NN=C(c2ccc(F)cc2)CS1          nM                 537

* * *

- targetSystem: MMPs
- assayRemarks: Ki determination in microfluorometric assay (Cheng-Prusoff, enzyme not specified)
- statedConditions: enzyme not given
assayReadout: Ki

                             moleculesmiles   result
0  CC(C)(NS(=O)(=O)c1ccccc1)C(=O)NC1=NN=C(c2ccc(Cl)cc2)CS1  ~100 nM

* * *

- targetSystem: MMP-9 (Homo sapiens, UniProt P14780)
- Construct: from tissue; host or cells: human plasma buffy coat (PMNL)
- Sequence (P14780 107-707 limits assumed): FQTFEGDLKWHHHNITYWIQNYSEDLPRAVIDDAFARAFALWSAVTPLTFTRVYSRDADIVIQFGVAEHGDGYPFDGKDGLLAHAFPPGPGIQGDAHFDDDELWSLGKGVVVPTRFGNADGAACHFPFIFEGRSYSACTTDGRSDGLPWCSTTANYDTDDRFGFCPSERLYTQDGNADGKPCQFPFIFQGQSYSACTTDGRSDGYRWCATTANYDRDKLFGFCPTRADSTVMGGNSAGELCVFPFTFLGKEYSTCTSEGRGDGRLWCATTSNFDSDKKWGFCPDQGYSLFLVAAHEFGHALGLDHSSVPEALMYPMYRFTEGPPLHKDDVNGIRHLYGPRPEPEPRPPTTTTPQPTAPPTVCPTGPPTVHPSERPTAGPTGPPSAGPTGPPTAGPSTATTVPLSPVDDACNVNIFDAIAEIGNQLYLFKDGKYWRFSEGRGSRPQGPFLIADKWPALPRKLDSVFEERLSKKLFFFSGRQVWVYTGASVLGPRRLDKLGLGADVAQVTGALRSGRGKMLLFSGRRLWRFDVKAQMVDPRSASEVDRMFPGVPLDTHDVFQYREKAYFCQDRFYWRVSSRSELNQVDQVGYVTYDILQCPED
- assayRemarks: MMP microfluorometric profiling assay (fluorogenic Mca-peptide substrate)
- Type: biochemical
- statedConditions: MMP-9, @ 15 (µM)
assayReadout: percent inhibition

>>> df
                                   compound        assayreadout      result
0  O=C(CC1NC(=O)NC1=O)NC1=NN=C(c2ccc(C3CCCCC3)cc2)CS1 (stereo not shown)  percent inhibition  49%^a)@ 15
1  O=C(CC1NC(=O)NC1=O)NC1=NN=C(c2ccc(Cl)cc2)CS1 (stereo not shown)  percent inhibition  40%^a)@ 15
2  O=C(CC1NC(=O)NC1=O)NC1=NN=C(c2ccc(Br)cc2)CS1 (stereo not shown)  percent inhibition  45%^a)@ 15
3  CC(C)[C@@H](NS(=O)(=O)c1ccccc1)C(=O)NC1=NN=C(c2ccc(Cl)cc2)CS1  percent inhibition  40%^a)@ 15

* * *

- targetSystem: cdMMP-13 (Homo sapiens, UniProt P45452)
- assayRemarks: MMP microfluorometric profiling assay (fluorogenic Mca-peptide substrate)
- Type: biochemical
- statedConditions: read-out: cdMMP-13 IC50
- Experimental: The tested MMP enzymes were prepared more specifically in the laboratories of the applicants, with the exception of MMP-1. MMP-1 from human rheumatoid synovial fibroblasts was purchased from Calbiochem-Novabiochem Corporation, LaJolla. […] The enzymatic activity was measured using a modified version of a resonance energy transfer fluorogenic assay as described^[26]. […] Cleavage results in the loss of energy transfer and a large increase in fluorescence of the MCA group. […]
# IC50 per entry
assayReadout: IC50 (nM)

>>> df
                             moleculesmiles                             targetsystem  unitabbrev  comparisonsymbol  quantitativeresult
0  COc1ccc(S(=O)(=O)NCC(=O)NC2=NN=C(c3c(F)c(F)c(F)c(F)c3F)CS2)cc1  cdMMP-13 (Homo sapiens, UniProt P45452)          nM                 =                1090
1  C[C@H](NS(=O)(=O)c1ccccc1)C(=O)NC1=NN=C(c2ccc(F)cc2)CS1  cdMMP-13 (Homo sapiens, UniProt P45452)          nM                 =                1170
2  COc1ccc(S(=O)(=O)NCC(=O)NC2=NN=C(c3ccc(Cl)cc3Cl)CS2)cc1  cdMMP-13 (Homo sapiens, UniProt P45452)          nM                 =                 605
3  C[C@H](NS(=O)(=O)c1ccccc1)C(=O)NC1=NN=C(c2ccc([N+](=O)[O-])cc2)CS1  cdMMP-13 (Homo sapiens, UniProt P45452)          nM                 =                 449
4  CC(C)[C@@H](NS(=O)(=O)c1ccccc1)C(=O)NC1=NN=C(c2ccc(Cl)cc2)CS1  cdMMP-13 (Homo sapiens, UniProt P45452)          nM                 >               15000
5  CC(C)[C@H](NS(=O)(=O)c1ccccc1)C(=O)NC1=NN=C(c2ccc(Cl)cc2)CS1  cdMMP-13 (Homo sapiens, UniProt P45452)          nM                 >               15000
6  O=C1C[C@@H](C(=O)NC2=NN=C(c3ccc(Cl)cc3)CS2)NC(=O)N1  cdMMP-13 (Homo sapiens, UniProt P45452)          nM                 =                 947
7  C[C@H](NS(=O)(=O)c1cccnc1)C(=O)NC1=NN=C(c2ccc(Cl)cc2)CS1  cdMMP-13 (Homo sapiens, UniProt P45452)          nM                 =                 361
